Tested on: rodent lifetime carcinogenesis bioassay, tumor incidence TD50
protocol.details: carcinogenic potency in animals, long-term in vivo studies, CPDB compilation (AID 1745844)
measurement.parameters: mouse; strain B6C3F1; males; in feed; site: liver; lesion: hepatocellular adenoma; dosed 103 weeks; study length 104 weeks
Active and inactive are the calls of the source. No rule for the calls is given here.
metric: TD50

As a guide, the following entries are already answered.
compound	TD50
C=CCc1ccc(O)c(OC)c1	781 mg/kg/day
Nc1ccc(/C=C/c2ccc(N)c(S(=O)(=O)O)c2)c(S(=O)(=O)O)c1	2570 mg/kg/day (inactive)
COc1ccccc1[N+](=O)[O-]	177 mg/kg/day
CNc1ccc(N(CCO)CCO)cc1[N+](=O)[O-]	286 mg/kg/day
Nc1c(Br)cc(Br)c2c1C(=O)c1ccccc1C2=O	464 mg/kg/day

// switching to the query compound
Request the reported TD50 associated with CCCCC(CC)COC(=O)CCCCC(=O)OCC(CC)CCCC (stereo unspecified)
9040 mg/kg/day

* * *

Test system: rodent lifetime carcinogenesis bioassay, tumor incidence TD50
protocol.details: carcinogenic potency in animals, long-term in vivo studies, CPDB compilation (AID 1745844)
measurement.parameters: mouse; strain C57BL/6N; males; in feed; site: liver; lesion: hepatocellular carcinoma; dosed 89 weeks; study length 91 weeks
metric: TD50

Request the reported TD50 associated with CC(C)(Oc1ccc(C2CC2(Cl)Cl)cc1)C(=O)O (stereo unspecified)
46.4 mg/kg/day

* * *

System: rodent lifetime carcinogenesis bioassay, tumor incidence TD50
protocol.details: carcinogenic potency in animals, long-term in vivo studies, CPDB compilation (AID 1745844)
measurement.parameters: mouse; strain B6C3F1; females; oral dosing; site: any site (literature study); lesion: several types; types named in the paper; dosed 76 weeks; study length 76 weeks
Activity calls are given as the source filed them. The rule behind the calls is not given here.
metric: TD50

As a guide, the following entries are already answered.
compound	result
c1ccc2sc(SSc3nc4ccccc4s3)nc2c1	432 mg/kg/day (inactive)
CCCCCCCCCCCCN=C(N)N	54.7 mg/kg/day (inactive)
Oc1ccc(OCc2ccccc2)cc1	1230 mg/kg/day (inactive)
O=S(=O)(c1ccc(Cl)cc1)c1cc(Cl)c(Cl)cc1Cl	220 mg/kg/day (inactive)
CCCCN(CCCC)C(=S)[S-].CCCCN(CCCC)C(=S)[S-].[Ni+2]	0.174 mg/kg/day (inactive)
c1ccc2sc(SNC3CCCCC3)nc2c1	243 mg/kg/day (inactive)
N#CN	68 mg/kg/day
ClC1=C(Cl)C2(Cl)C3C(Cl)OC(Cl)C3C1(Cl)C2(Cl)Cl (stereo unspecified)	0.277 mg/kg/day (inactive)
CC=CC(=O)Oc1c(C(C)CCCCCC)cc([N+](=O)[O-])cc1[N+](=O)[O-] (stereo unspecified)	1.21 mg/kg/day (inactive)
CC(C)Oc1ccc(Nc2ccccc2)cc1	1290 mg/kg/day (inactive)

Provide reported TD50 for each item, in the same order as listed.
1. CCCCOCCOCCOCc1cc2c(cc1CCC)OCO2
2. C=C1C[C@]23C[C@@]1(O)CC[C@H]2[C@@]12C=C[C@H](O)[C@@](C)(C(=O)O1)[C@H]2[C@@H]3C(=O)O
3. CC(=O)[O][Sn]([c]1ccccc1)([c]1ccccc1)[c]1ccccc1
4. S=c1[nH]c2ccccc2s1

83.1 mg/kg/day
1150 mg/kg/day (inactive)
284 mg/kg/day (inactive)
283 mg/kg/day (inactive)

Provide reported TD50 for each item, in the same order as listed.
1. O=C(O)Cc1c[nH]c2ccccc12
2. O=S(=O)(Oc1ccc(Cl)cc1Cl)c1ccccc1
3. CCN(CC)C(=S)SSC(=S)N(CC)CC
4. O=C1C2CC=CCC2C(=O)N1SC(Cl)(Cl)Cl (stereo unspecified)
5. CN(C)C(=O)NC1CC2CC1C1CCCC21 (stereo unspecified)
6. c1ccc2cc(Nc3ccc(Nc4ccc5ccccc5c4)cc3)ccc2c1
7. S=C([S-])NCCNC(=S)[S-].[Zn+2]
8. Oc1c(Cl)cc(Cl)cc1Sc1cc(Cl)cc(Cl)c1O

538 mg/kg/day (inactive)
929 mg/kg/day (inactive)
64.5 mg/kg/day
244 mg/kg/day (inactive)
1230 mg/kg/day (inactive)
235 mg/kg/day (inactive)
1150 mg/kg/day (inactive)
43 mg/kg/day

Provide reported TD50 for each item, in the same order as listed.
1. CC(C)OC(=O)COc1ccc(Cl)cc1Cl
2. [Cu+2].[O-]c1cccc2cccnc12.[O-]c1cccc2cccnc12
3. S=C(SSSSSSC(=S)N1CCCCC1)N1CCCCC1
4. O=S(=O)(Oc1ccc(Cl)cc1)c1ccc(Cl)cc1

["48.7 mg/kg/day (inactive)", "2490 mg/kg/day (inactive)", "83.1 mg/kg/day (inactive)", "931 mg/kg/day (inactive)"]

* * *

Test system: rodent lifetime carcinogenesis bioassay, tumor incidence TD50
protocol.details: carcinogenic potency in animals, long-term in vivo studies, CPDB compilation (AID 1745844)
measurement.parameters: rat; strain Sprague-Dawley; males; in feed; site: kidney; lesion: tubular-cell adenocarcinoma; dosed 46 weeks; study length 64 weeks
metric: TD50

Request the reported TD50 associated with `O=CNNc1nc(-c2ccc([N+](=O)[O-])o2)cs1`
19.3 mg/kg/day

* * *

Tested on: rodent lifetime carcinogenesis bioassay, tumor incidence TD50
protocol.details: carcinogenic potency in animals, long-term in vivo studies, CPDB compilation (AID 1745844)
measurement.parameters: rat; strain Sprague-Dawley; females; in feed; site: mammary gland; lesion: adenocarcinoma; dosed 75 weeks; study length 75 weeks
metric: TD50

Request the reported TD50 associated with `COc1cc2c(cc1N)oc1ccccc12`
61.9 mg/kg/day

* * *

Tested on: rodent lifetime carcinogenesis bioassay, tumor incidence TD50
protocol.details: carcinogenic potency in animals, long-term in vivo studies, CPDB compilation (AID 1745844)
measurement.parameters: mouse; strain DDY; males; in feed; site: liver; lesion: hepatocellular adenoma; dosed 81 weeks; study length 81 weeks
metric: TD50

Observed TD50 on rodent lifetime carcinogenesis bioassay, tumor incidence TD50 for `Cc1ccc(N=Nc2c(O)c(S(=O)(=O)O)cc3cc(S(=O)(=O)O)ccc23)c(C)c1` , please.
8790 mg/kg/day

* * *

System: rodent lifetime carcinogenesis bioassay, tumor incidence TD50
protocol.details: carcinogenic potency in animals, long-term in vivo studies, CPDB compilation (AID 1745844)
measurement.parameters: mouse; strain Charles River CD1; males; in feed; site: liver; lesion: eosinophilic adenoma; dosed 79 weeks; study length 79 weeks
metric: TD50

Observed TD50 on rodent lifetime carcinogenesis bioassay, tumor incidence TD50 for `CCCCOCCOCCOCc1cc2c(cc1CCC)OCO2` , please.
355 mg/kg/day

* * *

Test system: rodent lifetime carcinogenesis bioassay, tumor incidence TD50
protocol.details: carcinogenic potency in animals, long-term in vivo studies, CPDB compilation (AID 1745844)
measurement.parameters: mouse; strain AP Alderly Park; females; several routes; site: liver; lesion: hepatocellular carcinoma; dosed 78 weeks; study length 78 weeks
metric: TD50

Request the reported TD50 associated with `COC(=O)C(C)(C)Oc1ccc(-c2ccc(Cl)cc2)cc1`
13.4 mg/kg/day

* * *

Tested on: rodent lifetime carcinogenesis bioassay, tumor incidence TD50
protocol.details: carcinogenic potency in animals, long-term in vivo studies, CPDB compilation (AID 1745844)
measurement.parameters: mouse; strain Charles River CD1; females; in drinking water; site: all sites; lesion: all vascular tumors; dosed 104 weeks; study length 104 weeks
metric: TD50

Observed TD50 on rodent lifetime carcinogenesis bioassay, tumor incidence TD50 for `CN(C)N` , please.
11.1 mg/kg/day

* * *

Test system: rodent lifetime carcinogenesis bioassay, tumor incidence TD50
protocol.details: carcinogenic potency in animals, long-term in vivo studies, CPDB compilation (AID 1745844)
measurement.parameters: mouse; strain B6C3F1; males; in feed; site: liver; lesion: hepatocellular adenoma + hepatocellular carcinoma + neoplastic nodule; dosed 80 weeks; study length 92 weeks
metric: TD50 (mg/kg/day)
Numbers only, in mg/kg/day.

Observed TD50 on rodent lifetime carcinogenesis bioassay, tumor incidence TD50 for `COP(=O)(OC)OC(=CCl)c1cc(Cl)c(Cl)cc1Cl` , please.
228

* * *

Test system: rodent lifetime carcinogenesis bioassay, tumor incidence TD50
protocol.details: carcinogenic potency in animals, long-term in vivo studies, CPDB compilation (AID 1745844)
measurement.parameters: rat; strain Fischer 344; females; in drinking water; site: nasal cavity; lesion: adenocarcinoma; dosed 55 weeks; study length 105 weeks
metric: TD50

Request the reported TD50 associated with `O=NN(CCO)CCO`
44.1 mg/kg/day

* * *

Test system: rodent lifetime carcinogenesis bioassay, tumor incidence TD50
protocol.details: carcinogenic potency in animals, long-term in vivo studies, CPDB compilation (AID 1745844)
measurement.parameters: rat; strain Fischer 344; females; in drinking water; site: liver; lesion: hepatocellular carcinoma; dosed 104 weeks; study length 129 weeks
metric: TD50

Request the reported TD50 associated with `C=C/C=N/O`
104 mg/kg/day

* * *

System: rodent lifetime carcinogenesis bioassay, tumor incidence TD50
protocol.details: carcinogenic potency in animals, long-term in vivo studies, CPDB compilation (AID 1745844)
measurement.parameters: rat; strain Fischer 344; females; by gavage; site: lung; lesion: one or several types; types not named; dosed 30 weeks; study length 104 weeks
metric: TD50

Request the reported TD50 associated with `CCN(N=O)C(=O)NCC(C)=O`
0.873 mg/kg/day
